system: Plasmodium falciparum; experiment: Antimalarial activity as growth inhibition of chloroquine-resistant Plasmodium falciparum FcB1; format: functional, organism-based
pIC50: −log10 of the molar value.
Response key: condition met means pIC50 >= 7; condition not met means pIC50 < 7.

Qu. # check: pIC50 of O=C(CCCO)N(CCCN1CCN(CCCNc2ccnc3cc(Cl)ccc23)CC1)CC1CC1 is greater than or equal to 7
Ans. condition not met

Qu. # check: pIC50 of O=C(C1CC1)N(CCCN1CCN(CCCNc2ccnc3cc(Cl)ccc23)CC1)CC1CC1 is greater than or equal to 7
Ans. condition met

Qu. # check: pIC50 of N#CCCCCN(CCCN1CCN(CCCNc2ccnc3cc(Cl)ccc23)CC1)CC1CC1 is greater than or equal to 7
Ans. condition met

Qu. # check: pIC50 of CC(C)(C)OC(=O)NCCCN(CCCN1CCN(CCCNc2ccnc3cc(Cl)ccc23)CC1)CC1CC1 is greater than or equal to 7
Ans. condition met

Next:
Qu. # check: pIC50 of CC(C)(C)OC(=O)NCCC(=O)N(CCCN1CCN(CCCNc2ccnc3cc(Cl)ccc23)CC1)CC1CC1 is greater than or equal to 7
Ans. condition met
